System: 996289-038-R-J1-PDC complex spheroid viability;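 further: spheroids exposed to the agents for 7 days before readout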
Assay: Anticancer human tumor 996289-038-R-J1-PDC patient-derived colon adenocarcinoma cell line growth inhibition [CLK]; active means viability on the fitted dose curve at most 10% of control; inactive means the rest
Details: second compound 10 µM; first compound 10 µM
Excerpt: A high-throughput screen of multi-cell type tumor spheroids was designed to identify active combinations of […] and targeted small molecules. Complex spheroids include a stromal component modeled by human endothelial cells (HUVEC) and fibroblasts modeled by human mesenchymal stem cells (MSCs). […] Compounds. […] If the clinical Cmax for an agent had not been determined, the highest concentration tested was 10 microM. […]
Hi! Could you answer with just one of these? active, inactive

Known results for compounds:
| compound | label |
| --- | --- |
| O=C(c1cc(Cc2n[nH]c(=O)c3ccccc23)ccc1F)N1CCN(C(=O)C2CC2)CC1 + CN1CCN(c2cc(C(=O)Nc3cc4cc(-c5cnn(C)c5)ccc4cn3)ccn2)CC1 | active |
| Nc1ccccc1NC(=O)c1ccc(CNC(=O)OCc2cccnc2)cc1 + CNC(=O)c1ccc(Nc2nc(OC3CCCC3)c3c(-c4ccc5nc(C)oc5c4)c[nH]c3n2)c(OC)c1 | active |
| COC1C=CCC(C)C(C)S(=O)(=O)NC(=O)c2ccc3c(c2)N(CC2CCC21)CC1(CCCc2cc(Cl)ccc21)CO3 (stereo not given) + CN1CCN(c2cc(C(=O)Nc3cc4cc(-c5cnn(C)c5)ccc4cn3)ccn2)CC1 | active |

-- ask Per the records of this test, what outcome belongs to C#Cc1c(F)ccc2cc(O)cc(-c3ncc4c(N5CC6CCC(C5)N6)nc(OCC56CCCN5CC(F)C6)nc4c3F)c12 (stereo not given) + CNC(=O)c1ccc(Nc2nc(OC3CCCC3)c3c(-c4ccc5nc(C)oc5c4)c[nH]c3n2)c(OC)c1 ?
-- reply inactive

-- ask Per the records of this test, what outcome belongs to C#Cc1c(F)ccc2cc(O)cc(-c3ncc4c(N5CC6CCC(C5)N6)nc(OCC56CCCN5CC(F)C6)nc4c3F)c12 (stereo not given) + CN1CCN(c2cc(C(=O)Nc3cc4cc(-c5cnn(C)c5)ccc4cn3)ccn2)CC1 ?
-- reply active
